MEASURED METRIC: melting point

{"columns": ["COMPOUND", "MEASURED METRIC", "MEASURED RESULT"],
 "data": [
  ["CS(=O)(=O)Nc1ccc2c(c1)S(=O)(=O)NC(C1CCCCC1)N2 (stereo not drawn) [Compound 39]", "melting point", "255 to 258 °C"],
  ["CN1C(C2CCCCC2)Nc2ccc(S(=O)(=O)N3CCOCC3)cc2S1(=O)=O (stereo not drawn) [Compound 85]", "melting point", "243 to 245 °C"],
  ["CCC1(C)NC(=O)c2ccccc2O1 (stereo not drawn) [Compound 8]", "melting point", "76 to 78 °C"],
  ["CC(=O)Nc1ccccc1-c1ccc2c(c1)S(=O)(=O)NC(C1CCCCC1)N2 (stereo not drawn) [Compound 19]", "melting point", "245 to 249 °C"],
  ["CC1NC(=O)c2ccccc2O1 (stereo not drawn) [Compound 3]", "melting point", "124 to 126 °C"]
]}

Please look up its melting point: COc1cc(C(F)(F)F)ccc1-c1ccc2c(c1)S(=O)(=O)NC(C1CCCCC1)N2 (stereo not drawn) [Compound 22]
255 to 257 °C

Please look up its melting point: NS(=O)(=O)c1cc(Br)c2c(c1)S(=O)(=O)NC(C1CCCCC1)N2 (stereo not drawn) [Compound 101]
254 to 258 °C

Please look up its melting point: O=C1NC(c2ccccc2)Oc2ccccc21 (stereo not drawn) [Compound 4]
157 to 160 °C

Please look up its melting point: O=S1(=O)NC(C2CCCCC2)Nc2ccc3c(c21)OCCO3 (stereo not drawn) [Compound 122]
268 to 270 °C
